Target Entity: UniProt P52699
Sequence (P52699 19-246, looked up, species assumed): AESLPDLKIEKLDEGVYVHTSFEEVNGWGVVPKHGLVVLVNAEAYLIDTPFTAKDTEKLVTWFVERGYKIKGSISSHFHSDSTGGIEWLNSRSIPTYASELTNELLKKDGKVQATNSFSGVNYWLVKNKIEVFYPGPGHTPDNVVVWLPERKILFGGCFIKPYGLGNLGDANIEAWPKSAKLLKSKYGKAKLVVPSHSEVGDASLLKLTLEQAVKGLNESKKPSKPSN
Assay Details: In vitro MBLs inhibition assay with CENTA substrate, IMP-1
Type: biochemical
Test Parameters: inhibition constant for the competitive inhibition mode; read-out: IPM-1 Kic
Outcome Measure: Ki (µM)
// note: answer is a bare numeric in µM

Quick one: Ki for `O=S(=O)(Nc1ccccn1)c1ccc(-n2cc(CO)nn2)cc1` ?
11.4

Quick one: Ki for `O=S(=O)(Nc1ncccn1)c1ccc(-n2cc(CO)nn2)cc1` ?
11.8

Quick one: Ki for `NC(N)=NS(=O)(=O)c1ccc(-n2cc(CO)nn2)cc1` ?
10.9

----------
Target Entity: NDM-1 (Klebsiella pneumoniae, UniProt C7C422)
Sequence (C7C422 29-270, looked up, species assumed): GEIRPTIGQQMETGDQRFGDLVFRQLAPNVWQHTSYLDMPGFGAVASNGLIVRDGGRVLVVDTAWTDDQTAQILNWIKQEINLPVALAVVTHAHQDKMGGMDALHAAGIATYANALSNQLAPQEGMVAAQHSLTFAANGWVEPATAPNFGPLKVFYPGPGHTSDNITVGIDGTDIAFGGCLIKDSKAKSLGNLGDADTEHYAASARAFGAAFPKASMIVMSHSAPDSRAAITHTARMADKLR
Assay Details: In vitro MBLs inhibition assay with CENTA substrate, NDM-1
Type: biochemical
Test Parameters: inhibition constant for the competitive inhibition mode; read-out: NDM-1 Kic
Assignment: determine reported pKi for the given compounds.
On this scale, pKi is minus log10 of a concentration expressed in M (mol/L).

Quick one: pKi for NC(N)=NS(=O)(=O)c1ccc(-n2cc(CO)nn2)cc1 [Compound 3c] ?
5.07

Quick one: pKi for O=S(=O)(Nc1ncccn1)c1ccc(-n2cc(CO)nn2)cc1 [Compound 3a] ?
5.02

Quick one: pKi for O=S(=O)(Nc1ccccn1)c1ccc(-n2cc(CO)nn2)cc1 [Compound 3b] ?
5.05

----------
Target Entity: NDM-1 (Klebsiella pneumoniae)
Assay Details: In vitro MBLs inhibition assay with CENTA substrate, NDM-1
Type: biochemical
Test Parameters: inhibition constant for the uncompetitive inhibition mode; read-out: NDM-1 Kiuc
Outcome Measure: Ki (µM)
// note: answer is a bare numeric in µM

Quick one: Ki for `O=S(=O)(Nc1ncccn1)c1ccc(-n2cc(CO)nn2)cc1` ?
6

Quick one: Ki for `NC(N)=NS(=O)(=O)c1ccc(-n2cc(CO)nn2)cc1` ?
3.9

Quick one: Ki for `O=S(=O)(Nc1ccccn1)c1ccc(-n2cc(CO)nn2)cc1` ?
6

// data source = paper PMC9312158
